Where do these numbers come from? They come from patent US20220177583A1.

Below, each entry is listed with its recorded pEC50.
# STUDY SYSTEM: T1, human CLDN6, endogenously expressed on cancer cell lines (human, UniProt P56747 1-220)
# T1 construct: also called Endogenous CLDN6+; CLDN6 on ARK2, OVCA429, UMUC4 cells
# T1 sequence: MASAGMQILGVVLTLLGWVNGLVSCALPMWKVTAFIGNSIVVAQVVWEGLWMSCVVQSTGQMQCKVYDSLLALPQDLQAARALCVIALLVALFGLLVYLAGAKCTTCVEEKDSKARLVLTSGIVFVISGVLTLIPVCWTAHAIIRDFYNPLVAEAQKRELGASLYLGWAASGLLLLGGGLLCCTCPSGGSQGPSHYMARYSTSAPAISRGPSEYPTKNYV
# TEST SUMMARY: FACS dose curve, labelled mAb, ARK2 cells
# pEC50 = -log10(concentration in molar units)

Previously resolved entries follow.
1) AB4 (antibody, V domains shown, Full-length IgG (ExpiCHO)) VH: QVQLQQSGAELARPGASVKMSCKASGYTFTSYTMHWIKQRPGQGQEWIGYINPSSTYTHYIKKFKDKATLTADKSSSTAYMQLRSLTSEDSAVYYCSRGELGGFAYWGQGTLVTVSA VL: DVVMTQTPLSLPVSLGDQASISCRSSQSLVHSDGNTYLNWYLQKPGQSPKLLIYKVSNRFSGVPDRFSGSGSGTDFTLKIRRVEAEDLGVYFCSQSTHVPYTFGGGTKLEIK
7.32
2) AB13 (antibody, V domains shown, Full-length IgG (ExpiCHO)) VH: QVQLQQSGAELVRPGTSVKVSCKASGYAFSNYLIEWVKQRPGQGLEWIGVINPGSGGTNYNEKFKGKATMTADKSSSTAYMHLSNLTSEDSVVYFCARSYFGRSYPYTMDYWGQGTSVTVSS VL: EIVLTQSPTTMAASPGEKITITCSASSSISSNYLHWYQQKPGFSPKLLIYRTSNLASGVPARFSGSGSGTSYSLTIGTMEAEDVATYYCQQGSSIPLTFGAGTKLELK
5.94
3) AB11 (antibody, V domains shown, Full-length IgG (ExpiCHO)) VH: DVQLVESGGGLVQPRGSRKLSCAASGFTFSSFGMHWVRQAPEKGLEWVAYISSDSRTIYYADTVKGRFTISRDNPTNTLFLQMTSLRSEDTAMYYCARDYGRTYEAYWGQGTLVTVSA VL: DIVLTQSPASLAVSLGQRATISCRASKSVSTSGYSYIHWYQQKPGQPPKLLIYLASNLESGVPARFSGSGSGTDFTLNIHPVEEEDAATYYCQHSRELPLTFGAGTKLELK
6.44
4) AB6 (antibody, V domains shown, Full-length IgG (ExpiCHO)) VH: DVQLQESGPGLVKSSQSLSLTCSVTGYSITSGYYWKWIRQFPGNKLEWMGYISYDGGINYNPSLKNRISITRDTSKNQFFLKLNSVTTEDTAKYYCARFGKGAMDYWGQGTSVTVSS VL: AIVMFQSPSSLVVSAGEKVTMSCKSSQSLLNSRTRKNYLAWYQQKPGQSPKLLIYWASTRESGVPDRFTGSGSGTDFTLTISSVQAEDLAVYYCKQSYYLYTFGGGTKLEIK
6.12

Consider the record given below.
Req: GET /values?readout=pEC50&item= AB1 (antibody, V domains shown, Full-length IgG (ExpiCHO)) VH: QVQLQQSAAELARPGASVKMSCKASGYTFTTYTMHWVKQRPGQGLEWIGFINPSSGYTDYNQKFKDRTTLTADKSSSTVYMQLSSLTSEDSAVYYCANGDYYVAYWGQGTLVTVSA VL: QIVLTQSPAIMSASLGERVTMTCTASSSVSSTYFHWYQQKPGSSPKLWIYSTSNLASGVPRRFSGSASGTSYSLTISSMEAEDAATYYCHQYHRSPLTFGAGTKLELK
Resp: 6.98
